experiment: Plasma and urine PK of verinurad in the presence of febuxostat; type: in vivo, human; conditions: human, plasma, oral, Tmax, verinurad 5 mg + febuxostat 40 mg; median (range)
Measurement label: Tmax (h)
Kindly answer with a numeric value in h, unit omitted.

Entry CC(C)(Sc1ccncc1-c1ccc(C#N)c2ccccc12)C(=O)O , Tmax reported as 3.5

###

test: Plasma and urine PK of verinurad in the presence of febuxostat; type: in vivo, human; details: human, plasma, oral, Tmax, verinurad 5 mg + febuxostat 80 mg; median (range)
Measurement label: Tmax
Include the unit right after the number.

Entry CC(C)(Sc1ccncc1-c1ccc(C#N)c2ccccc12)C(=O)O , Tmax reported as 4 h

###

assay: Plasma and urine PK of verinurad in the presence of febuxostat; assay type: in vivo, human; conditions: human, plasma, oral, Tmax, verinurad 20 mg + febuxostat 40 mg; median (range)
Measurement label: Tmax (h)
Kindly answer with a numeric value in h, unit omitted.

Entry CC(C)(Sc1ccncc1-c1ccc(C#N)c2ccccc12)C(=O)O [verinurad] , Tmax reported as 3
